Below, each of the molecules is paired with its reported log10 of EC50 value.
- System: Human immunodeficiency virus 1
- PROTOCOL_NOTES: Antiviral activity against wild type HIV1 NL4-3 infected in human MT4 cells assessed as inhibition of virus-induced cytopathic effect after 5 days by MTT assay
- Assay type: functional, organism-based
- SETUP_CONDITIONS: Human immunodeficiency virus 1, NL4-3, MT4, 120 h
VALUE_KIND: log10 of EC50 (log10 of the value in nM)

{"columns": ["MOLECULE", "MEASUREMENT_TARGET", "VALUE_KIND", "MEASURED"],
 "data": [
  ["O=C1Nc2ccc(Cl)cc2[C@@](C#CC2CC2)(C(F)(F)F)O1 [EFAVIRENZ]", "Human immunodeficiency virus 1", "log10 of EC50", 0.86],
  ["Cc1cc(C)c(Nc2ccnc(Nc3ccc(C#N)cc3)n2)c(C)c1 [DAPIVIRINE]", "Human immunodeficiency virus 1", "log10 of EC50", -0.22],
  ["CCCN(C)c1nc(C(C)c2c(F)cccc2F)c(C)c(=O)[nH]1 (racemic)", "Human immunodeficiency virus 1", "log10 of EC50", 0.28],
  ["Cc1c(N)nc(Nc2ccc(C#N)cc2)nc1[C@H](C)c1c(F)cccc1F", "Human immunodeficiency virus 1", "log10 of EC50", -1.00],
  ["CCCN(C)c1nc([C@@H](C)c2c(F)cccc2F)c(C)c(=O)[nH]1", "Human immunodeficiency virus 1", "log10 of EC50", 4.18],
  ["CCCN(C)c1nc([C@H](C)c2c(F)cccc2F)c(C)c(=O)[nH]1", "Human immunodeficiency virus 1", "log10 of EC50", 0.11],
  ["Cc1c(N)nc(Nc2ccc(C#N)cc2)nc1[C@@H](C)c1c(F)cccc1F", "Human immunodeficiency virus 1", "log10 of EC50", 3.00]
]}
